- Experiment Description: Single dose parallel plasma and CSF pharmacokinetics and relative bioavailability study in rats
- Type: in vivo
- Condition Summary: both sexes, Wistar, rat, plasma; rats; 5.5 mg oral solution by oral gavage; Mean; read-out: Absolute Bioavailability (F %)
Measurement Label: bioavailability (%)
One number for each entry, in %.

I am curious: what bioavailability value has been reported for COCCOC(=O)C1=C(C)NC(C)=C(C(=O)OC(C)C)C1c1cccc([N+](=O)[O-])c1 (stereo not shown) [nimodipine] ?
22
